Test system: CCRIS mutagenicity, Ames/micronucleus/aberration tests
assay_method_text: CCRIS mutagenicity studies
conditions: Test System: AMES SALMONELLA TYPHIMURIUM; Strain/Indicator: TA100; Metabolic Activation: NONE; Method: PREINCUBATION
Activity calls are given as the source filed them. No rule for the calls is given here.
Classes to choose from: active, inactive

{"smiles_record": "CC(C)(C)C(=O)C1C(=O)c2ccccc2C1=O", "category": "inactive"}
{"smiles_record": "ClC(Cl)Br", "category": "inactive"}
{"smiles_record": "NC(=O)c1ccccc1O", "category": "inactive"}
{"smiles_record": "O=[N+]([O-])c1ccc(Nc2ccc(O)cc2)c([N+](=O)[O-])c1", "category": "active"}
{"smiles_record": "OCCCCCCO", "category": "inactive"}

Task: Could you check what this test reported for "CC(=O)OCc1cccc([N+](=O)[O-])c1" ?
Result: inactive

Task: Could you check what this test reported for "CC(C)(C)[N+](=O)[O-]" ?
Result: inactive

Task: Could you check what this test reported for "CC(=O)c1ccccc1[N+](=O)[O-]" ?
Result: inactive

###

Tested on: CCRIS mutagenicity, Ames/micronucleus/aberration tests
assay_method_text: CCRIS mutagenicity studies
conditions: Test System: AMES SALMONELLA TYPHIMURIUM; Strain/Indicator: TA97A; Metabolic Activation: NONE; Method: STANDARD PLATE
Calls of active or inactive are those of the source. How the calls were made is not given here.
Classes to choose from: 1 (yes) (active), 0 (no) (inactive)

{"compound": "COc1cc([C@H]2OC[C@H]3[C@@H]2CO[C@@H]3c2cc(OC)c(OC)c(OC)c2)cc(OC)c1OC", "category": "0 (no)"}
{"compound": "Cc1cc(C)c(C)c(C)c1", "category": "1 (yes)"}
{"compound": "CC(C)=CCCC(C)CC=O (centres undefined)", "category": "0 (no)"}

Task: Could you check what this test reported for "CCCCC1C(=O)N(c2ccccc2)N(c2ccccc2)C1=O" ?
Result: 0 (no)

###

Test system: CCRIS mutagenicity, Ames/micronucleus/aberration tests
assay_method_text: CCRIS mutagenicity studies
conditions: Test System: AMES SALMONELLA TYPHIMURIUM; Strain/Indicator: TA98; Metabolic Activation: MOUSE, LIVER, S-9; Method: STANDARD PLATE
The source made the active and inactive calls. No rule for the calls is given here.
Classes to choose from: active, inactive

Observe how each entry below is paired with its result.
{"smiles_record": "COc1ccc(N)cc1", "category": "inactive"}
{"smiles_record": "CN(C)c1ccc(C(=O)c2ccc(N(C)C)cc2)cc1", "category": "inactive"}
{"smiles_record": "C=CCCCCCCCCCCC", "category": "inactive"}

Attention now turns to another entry.
Task: Could you check what this test reported for "Nc1ccc(Cl)c(N)c1" ?
Result: active

###

Tested on: CCRIS mutagenicity, Ames/micronucleus/aberration tests
assay_method_text: CCRIS mutagenicity studies
conditions: Test System: AMES SALMONELLA TYPHIMURIUM; Strain/Indicator: TA100; Metabolic Activation: RAT, LIVER, S-9, AROCLOR 1254 (10%); Method: PREINCUBATION
Source text: The CCRIS database contains chemical records with carcinogenicity, mutagenicity, tumor promotion, and tumor inhibition test results. It was developed by the National Cancer Institute (NCI). Data are derived from studies cited in primary journals, current awareness tools, NCI reports, and other sources. Test results have been reviewed by experts in carcinogenesis and mutagenesis. CCRIS provides historical information from the years 1985 - 2011. It is no longer updated. […]
Activity calls are given as the source filed them. The rule behind the calls is not given here.
recorded_endpoint: mutagenic call

Study these solved cases before continuing.
{"molecule": "COC(=O)c1ccc(C(=O)OC)cc1", "recorded_endpoint": "mutagenic call", "result": "inactive; negative"}
{"molecule": "CC(=O)[O][Hg][c]1ccccc1", "recorded_endpoint": "mutagenic call", "result": "inactive; negative"}
{"molecule": "CC(CCl)OP(=O)(OC(C)CCl)OC(C)CCl (stereo not given)", "recorded_endpoint": "mutagenic call", "result": "inactive; negative"}
{"molecule": "COc1cc(/C=C/C(=O)CC(=O)/C=C/c2ccc(O)c(OC)c2)ccc1O", "recorded_endpoint": "mutagenic call", "result": "inactive; negative"}
{"molecule": "Nc1cccc(N)c1", "recorded_endpoint": "mutagenic call", "result": "active; positive"}

Task: Please look up its mutagenic call: "ClCCCl"
Result: inactive; negative

Task: Please look up its mutagenic call: "O=[N+]([O-])c1ccc(Nc2ccc(O)cc2)c([N+](=O)[O-])c1"
Result: active; positive

Task: Please look up its mutagenic call: "C=CC(=O)OCC(CO)(COC(=O)C=C)COC(=O)C=C"
Result: inactive; negative

Task: Please look up its mutagenic call: "CC(=O)NS(=O)(=O)c1ccc(N)cc1"
Result: inactive; negative

###

Tested on: CCRIS mutagenicity, Ames/micronucleus/aberration tests
assay_method_text: CCRIS mutagenicity studies
conditions: Test System: AMES SALMONELLA TYPHIMURIUM; Strain/Indicator: TA1537; Metabolic Activation: RAT, LIVER, S-9, AROCLOR 1254 (30%); Method: PREINCUBATION
Active and inactive are the calls of the source. The rule behind the calls is not given here.

{"compound": "CC(CCl)OP(=O)(OC(C)CCl)OC(C)CCl (stereo not drawn)", "mutagenic call": "inactive; negative"}
{"compound": "N[C@@H](Cc1c[nH]c2ccccc12)C(=O)O", "mutagenic call": "inactive; negative"}
{"compound": "CCCCOCCOCCSC#N", "mutagenic call": "inactive; negative"}

###

Tested on: CCRIS mutagenicity, Ames/micronucleus/aberration tests
assay_method_text: CCRIS mutagenicity studies
conditions: End Point: IN VITRO CHROMOSOMAL ABERRATIONS; Test System: CHINESE HAMSTER OVARY CELLS (CHO); Metabolic Activation: RAT, LIVER, S-9, AROCLOR 1254
Active and inactive are the calls of the source. The rule behind the calls is not given here.
Classes to choose from: active, inactive

Task: Could you check what this test reported for "CN(C)c1ccc(N)cc1" ?
Result: inactive

Task: Could you check what this test reported for "Nc1cccc(N)c1" ?
Result: inactive

Task: Could you check what this test reported for "CN(C)c1ccc(N(C)C)cc1" ?
Result: active

Task: Could you check what this test reported for "Cc1c(N)cccc1N" ?
Result: inactive

Task: Could you check what this test reported for "Oc1ccc(Cl)c(Cl)c1Cl" ?
Result: active

Task: Could you check what this test reported for "Oc1cc(Cl)c(Cl)c(Cl)c1Cl" ?
Result: active

###

System: CCRIS mutagenicity, Ames/micronucleus/aberration tests
assay_method_text: CCRIS mutagenicity studies
conditions: Test System: AMES SALMONELLA TYPHIMURIUM; Strain/Indicator: TA97; Metabolic Activation: RAT, LIVER, S-9, AROCLOR 1254 (10%); Method: PREINCUBATION
Calls of active or inactive are those of the source. The rule behind the calls is not given here.
recorded_endpoint: mutagenic call

Study these solved cases before continuing.
{"compound": "CCCCCCCCCCCCCCCCCC[N+](C)(C)Cc1ccccc1", "recorded_endpoint": "mutagenic call", "result": "inactive; negative"}
{"compound": "CCCCOCCOCCSC#N", "recorded_endpoint": "mutagenic call", "result": "inactive; negative"}
{"compound": "CCN(CC)c1ccc2c(-c3ccccc3C(=O)O)c3ccc(=[N+](CC)CC)cc-3oc2c1", "recorded_endpoint": "mutagenic call", "result": "inactive; negative"}
{"compound": "O=[N+]([O-])c1ccccc1Nc1ccccc1", "recorded_endpoint": "mutagenic call", "result": "inactive; negative"}

Task: Please look up its mutagenic call: "Cc1ccc(C)c(N)c1"
Result: inactive; negative

Task: Please look up its mutagenic call: OCC(O)CCl (centres undefined)
Result: inactive; negative

Task: Please look up its mutagenic call: "COc1ccc(C(=O)Nc2ccccc2)cc1[N+](=O)[O-]"
Result: active; positive

Task: Please look up its mutagenic call: N#CC(O)c1ccccc1 (centres undefined)
Result: inactive; negative

Task: Please look up its mutagenic call: "CN(C)/N=N/c1nc[nH]c1C(N)=O"
Result: active; positive

Task: Please look up its mutagenic call: "CCc1cc(C(N)=S)ccn1"
Result: inactive; negative

Task: Please look up its mutagenic call: "O=c1c2[nH]c3ccccc3c2nnn1/N=C/c1ccc(O)cc1"
Result: active; positive

Task: Please look up its mutagenic call: "Nc1ccc(Cc2ccc(N)c(Cc3ccc(N)cc3)c2)cc1"
Result: active; positive

Task: Please look up its mutagenic call: CC(CCl)OP(=O)(OC(C)CCl)OC(C)CCl (centres undefined)
Result: inactive; negative

Task: Please look up its mutagenic call: "Nc1ccccc1Cl"
Result: inactive; negative

###

System: CCRIS mutagenicity, Ames/micronucleus/aberration tests
assay_method_text: CCRIS mutagenicity studies
conditions: Test System: AMES SALMONELLA TYPHIMURIUM; Strain/Indicator: TA100; Metabolic Activation: RAT, LIVER, S-9, AROCLOR 1254
Active and inactive are the calls of the source. No rule for the calls is given here.
Classes to choose from: 1 (yes) for active, 0 (no) for inactive

Observe how each entry below is paired with its result.
{"molecule": "COc1cccc2c1C(=O)c1c(O)c3c(c(O)c1C2=O)CC(O)(C(=O)CO)CC3OC1CC(N2CCOCC2C#N)C(O)C(C)O1 (stereo unspecified)", "category": "0 (no)"}
{"molecule": "CC(C)NCC(O)c1ccc(NS(C)(=O)=O)cc1 (stereo unspecified)", "category": "0 (no)"}
{"molecule": "O=[N+]([O-])c1cc2ccc3cccc4ccc(c1)c2c34", "category": "1 (yes)"}

Task: Could you check what this test reported for "O=[N+]([O-])c1ccc(-c2ccccc2)cc1" ?
Result: 0 (no)

Task: Could you check what this test reported for "Cc1c2c3c(cccc3c3ccccc13)-c1ccccc1-2" ?
Result: 1 (yes)

Task: Could you check what this test reported for "Cc1ccc2c3c(cc4ccccc42)-c2ccccc2-c13" ?
Result: 1 (yes)
